Assay Target: human PPARα receptor (Homo sapiens, UniProt Q07869)
Construct: and; expressed in transfected cells; host or cells: CV-1 cells, pSG5-based Gal4-PPAR expression vector
Sequence (Q07869 167-468): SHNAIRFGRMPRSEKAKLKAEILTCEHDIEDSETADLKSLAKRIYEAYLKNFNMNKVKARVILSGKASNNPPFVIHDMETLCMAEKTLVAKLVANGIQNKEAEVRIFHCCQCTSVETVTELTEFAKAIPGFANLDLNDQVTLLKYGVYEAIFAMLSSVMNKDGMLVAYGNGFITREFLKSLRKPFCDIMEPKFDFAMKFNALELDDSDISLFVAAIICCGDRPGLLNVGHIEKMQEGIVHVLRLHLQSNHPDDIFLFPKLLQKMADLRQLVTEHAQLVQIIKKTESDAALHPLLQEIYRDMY
Experiment: Luciferase assay using human PPARα receptor (Gal4 chimera, CV-1 cells)
Format: cell-based
Test Conditions: 24 h, 10 μM, luciferase activity of Wy-14.643 at 10 μM = 100, read-out: PPARα agonist activity, Relative activity
Counter-ions that a name gives are not always drawn.
Test Readout: Emax at 10 µM (%)
API: value field is a number in %; no unit string.

CCOC(=O)C(C)(Cc1cc2ccccc2s1)C(N)=O (stereo not shown) [Example 8] ... 0.2
COc1cc2cc(CC(C)(Oc3ccc(C(C)C)cc3)C(=O)O)sc2cc1OC (stereo not shown) [Example 3] ... 111
CCOC(=O)C(C)(Cc1cc2cc(OC)c(OC)cc2s1)Oc1ccc(C#N)cc1 (stereo not shown) [Example 1] ... 0.5
COc1cc2cc(CC(C)(Oc3ccc(C#N)cc3)C(=O)O)sc2cc1OC (stereo not shown) [Example 2] ... 66.4
COc1cc2sc(CC(C)(Oc3ccc(C(C)C)cc3)C(=O)O)cc2c(Cl)c1OC (stereo not shown) [Example 4] ... 249
COc1cc2sc(/C=C(\Oc3ccc(C(C)C)cc3)C(=O)O)cc2c(Cl)c1OC [Example 6] ... 0.1
COc1cc2cc(CC(C)(Oc3ccc(C(=N)N4CCOCC4)cc3)C(=O)O)sc2cc1OC (stereo not shown) [Example 5, Hydrochloride] ... 0.7
CC(C)c1ccc(NC(=O)C(C)(Cc2cc3ccccc3s2)C(=O)O)cc1 (stereo not shown) [Example 12] ... 0.2
CC(Cc1cc2ccccc2s1)(C(=O)O)C(=O)N1CCOCC1 (stereo not shown) [Example 11] ... 0.3

Return value of Emax at 10 µM for input COc1cc2cc(CC(C)(C(=O)O)C(=O)NC3CCCCC3)sc2cc1OC (stereo not shown) [Example 14] , no commentary.
0.6
